Reported values of Maximum Plateau of Neutralization for individual entries
TEST_TARGET: SARS-CoV-2 spike on pseudovirus or live virus (USA-WA1/2020, WT) (SARS-CoV-2, UniProt P0DTC2 14-1273)
PROCEDURE_DETAILS: cell-based or functional assay

BINDER | MEASURED_PROPERTY | RESULT
L6.dP02A05 (antibody, V domains shown, human IgG1) VH: EVQLVQSGAEVKKPGASVKVSCMASGYTFTSYYMHWVRQAPGQGLEWMGIISPSGGGTSYAQKFQGRVTLTRDTSTSTVYMELSSLRSEDTAVYYCARWYDSTGSIDYWGQGTLVTVSS VL: DIVMTQSPSSLSASVGDRVTITCRASQGIRNDLGWYQQKPGKAPKRLIYAASSLQSGVPSRFSGSGSGTEFTLTISSLQPEDFATYYCLQHNSYPILTFGGGTKVEIK | Maximum Plateau of Neutralization | 100%
L12.bP11C10 (antibody, V domains shown, human IgG1) VH: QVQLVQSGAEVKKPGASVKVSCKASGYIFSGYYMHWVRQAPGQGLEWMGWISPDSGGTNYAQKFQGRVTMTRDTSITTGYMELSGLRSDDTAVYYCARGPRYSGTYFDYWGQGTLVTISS VL: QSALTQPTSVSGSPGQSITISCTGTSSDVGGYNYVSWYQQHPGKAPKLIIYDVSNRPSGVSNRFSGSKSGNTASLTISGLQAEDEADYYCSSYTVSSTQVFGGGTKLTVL | Maximum Plateau of Neutralization | 100%

Query L6.dP02E05 (antibody, V domains shown, human IgG1) VH: QVQLVQSGSELKKPGASVKVSCKASGYTFATYALNWVRQAPGQGLEWMGWVNTNTGSPTYAQGFTGRFVFSFDTSVSTAYLQIRTLKAEDTAVYYCAVYYYDSGSPGWFDPWGQGTLVTVSS VL: DIQLTQSPSSLSASVGDRVTITCRASQTASSYLNWYQQKPGKAPNLLIYAASSLQSGVPSRFSGSGSVTDFTLTISSLQPEDFATYYCQQSYSTPPTFGQGTKVDIK yields Maximum Plateau of Neutralization of 100%

Value of measured Maximum Plateau of Neutralization for the entry L6.dP03H10 (antibody, V domains shown) VH: QVQLVQSGAEVKKPGSSVKVSCKASGGTFSIYAITWVRQAPGQGLEWMGGIIPIIGTANYAQKFQGRVTITADKSTSTAYMELSSLRSEDTAVYYCARDFRYCSSTRCYFWFDPWGQGTLVTVSS VL: DIQMTQSPSSLSASVGDRVTITCRASQNISSYLNWYQQEAGKAPKLLIYAASSLQSGVPSRFSGSGSGTDFTLTISSLQPEDFATYYCQQSYSTPRTFGQGTKVDIK : 100%

According to the records, this binder L12.cP09D03 (antibody, V domains shown, human IgG1) VH: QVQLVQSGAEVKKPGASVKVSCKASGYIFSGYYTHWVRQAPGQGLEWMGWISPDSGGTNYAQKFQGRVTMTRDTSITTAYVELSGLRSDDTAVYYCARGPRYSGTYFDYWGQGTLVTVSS VL: QSVLTQPASVSGSPGQSITISCTGTSSDVGGYNYVSWYQQHPGKVPKLMIYDVSNRPSGVSNRFSGSKSGNTASLTISGLQAEDEADYYCSSYTSSSAQLFGGGTKLTVL displays Maximum Plateau of Neutralization of 85%
